Assay: Toxicity liver stage against HepG2, at 10uM
Format: cell-based
Set-up: test concentration 10 uM, cell line HepG2-A16-CD81EGFP
Settings: human, HepG2-A16-CD81EGFP cells; read-out: INHIBITION
Let's look at some molecules and their measured cytotoxicity at 10 µM.
Please give a number only; it is taken to be in %.

Check out these entries, answers already filled in.
MOLECULE	cytotoxicity at 10 µM [%]
Cc1cccc(=O)n1CCCNc1nc(N(C)C)nc2c1CCNC2	-0.545
O=C(NC1CCCC1)N1CC[C@H]2[C@H]1CCN2c1nncs1	-7.73
Cc1occc1C(=O)N1CCO[C@H]2[C@H](Oc3cccnc3)CC[C@@H]21	-93.4
Cc1nc2c(c(NCCNC(=O)C(C)C)n1)Cc1ccccc1OC2	4.74
CC(O)c1cn(C2CCN(C(=O)C3(C)CCCCC3)CC2)nn1 (stereo unspecified)	-7.11
O=C(c1ccnn1COc1ccc(Cl)cc1)N1CCSCC1	-4.56
CNS(=O)(=O)c1ccc(CCC(=O)NCc2cccc(OC)c2)cc1	-148
CNC(=O)c1cc2c(nc1N(C)C)CCN(C)CC2	-149
CCOc1cccc(C2CC(=O)NCc3nc(N(C)C)sc32)c1 (stereo unspecified)	-10.9
CC(C)(O)CCc1cccc(C(=O)NCC2CN(S(C)(=O)=O)CCO2)c1 (stereo unspecified)	2.29

cytotoxicity at 10 µM lookup needed for Cc1cccnc1NC(=O)NC(C)Cn1cccn1 (stereo unspecified) , thanks.
-6.8

cytotoxicity at 10 µM lookup needed for Nc1nc2c(c(N3CCN(C(=O)c4cccs4)CC3)n1)CCCC2 , thanks.
7.9

cytotoxicity at 10 µM lookup needed for CCn1nc(CC(C)C)cc1C(=O)NCCn1cccc1 , thanks.
-5.94

cytotoxicity at 10 µM lookup needed for Cc1nn(C)c(N(C)C)c1CNCc1ccccc1CO , thanks.
-8.84

cytotoxicity at 10 µM lookup needed for CCOc1ccccc1CNC(=O)NCC(c1cnn(C)c1)N(C)C (stereo unspecified) , thanks.
4.15

cytotoxicity at 10 µM lookup needed for c1ccc(CCN2CCN(c3ncnc4[nH]ccc34)CC2)cc1 , thanks.
5.09

###

Assay: Toxicity liver stage against HepG2, at 10uM
Assay type: cell-based
Set-up: test concentration 10 uM, cell line HepG2-A16-CD81EGFP
Settings: human, HepG2-A16-CD81EGFP cells; read-out: INHIBITION
VALUE TYPE: cytotoxicity at 10 µM (%)
Please give a number only; it is taken to be in %.

Check out these entries, answers already filled in.
COMPOUND	UNITS	NUMERIC READOUT
NC1(C(=O)NCC2CCCN(Cc3cccc4nonc34)C2)CCC1 (stereo not given)	%	-43.8
CN(CCO)Cc1cc(=O)n2cc(Br)ccc2n1	%	-6.69
COCCCNC(=O)c1c[nH]c2ccc(OC)cc12	%	-4.76
CCN(CC)S(=O)(=O)N1CCC(c2nccn2Cc2ccccn2)CC1	%	0.136
Cc1cnccc1CN(C)C(=O)c1cccc(CCC(C)(C)O)c1	%	-3.55
CCCc1nc(N2CCC(CCO)CC2)c2cnn(C)c2n1	%	2.28
COc1cc(C2CC(=O)Oc3cc(C)[nH]c(=O)c32)ccc1OCC(=O)O (stereo not given)	%	-4.23
O=C(NCCN1CCOCC1)c1n[nH]c(=O)c2ccccc12	%	0.376

cytotoxicity at 10 µM lookup needed for COC(=O)c1cccn1C1CCN(Cc2ccccc2)CC1 , thanks.
-12

cytotoxicity at 10 µM lookup needed for O=S1(=O)CCN2C(=N1)Oc1ccc(Cl)cc12 , thanks.
13.7

###

Assay: Toxicity liver stage against HepG2, at 10uM
Assay type: cell-based
Parameters: test concentration 10 uM, cell line HepG2-A16-CD81EGFP
Settings: human, HepG2-A16-CD81EGFP cells; read-out: INHIBITION
VALUE TYPE: cytotoxicity at 10 µM (%)
Please give a number only; it is taken to be in %.

MOLECULE	NUMERIC READOUT
COCCn1c2c(ccc1=O)CCN(C(=O)C1CC=CC1)CC2	4.77

cytotoxicity at 10 µM lookup needed for Cn1nc(C(=O)NC2CCCC2)cc1NC(=O)C1CC1 , thanks.
0.754

cytotoxicity at 10 µM lookup needed for CC(C)NC(=O)CS(=O)(=O)c1cc2c(cc1Cl)OCCO2 , thanks.
-2.46

cytotoxicity at 10 µM lookup needed for Cc1cc(N2CCCN(C(C(=O)O)c3cccc(C)c3F)CC2)ccn1 (configuration not stated) , thanks.
-2.11

cytotoxicity at 10 µM lookup needed for Cc1cc(C(=O)N2CC[C@@H]3CO[C@@H](CN4CCCC4)[C@@H]3C2)no1 , thanks.
7.61

cytotoxicity at 10 µM lookup needed for O=S(=O)(NCC1COc2ccccc2C1)N1CCCCC1 (configuration not stated) , thanks.
-0.628

###

Let's look at some compounds and their measured cytotoxicity at 10 µM.
Assay: Toxicity liver stage against HepG2, at 10uM
Format: cell-based
Parameters: test concentration 10 uM, cell line HepG2-A16-CD81EGFP
Details: human, HepG2-A16-CD81EGFP cells; read-out: INHIBITION
Please give a number only; it is taken to be in %.

COMPOUND	UNITS	cytotoxicity at 10 µM
CN1CCOC(c2cncc(CCC(=O)N(C)C)n2)C1 (configuration not stated)	%	0.55
Cc1ncc(C(=O)N2CCC(N3CCc4ccccc4C3)CC2)c(O)n1	%	-0.745

cytotoxicity at 10 µM lookup needed for Cn1c(=O)n(C)c2nc(Br)c(CC(=O)c3ccccc3)n2c1=O , thanks.
0.9

cytotoxicity at 10 µM lookup needed for CC(C)(C)OC(=O)N1CCN(C(=O)c2cnn3c2OCCC3)CC1 , thanks.
-2

cytotoxicity at 10 µM lookup needed for CC(C)Oc1ccc2c(NC(=O)CNC(N)=O)nn(CC(F)(F)F)c2c1 , thanks.
-5.89

cytotoxicity at 10 µM lookup needed for COCCN1CCCN(C(=O)NC(C)Cn2cccn2)CC1 (configuration not stated) , thanks.
-9.39

###

Assay: Toxicity liver stage against HepG2, at 10uM
Format: cell-based
Design: test concentration 10 uM, cell line HepG2-A16-CD81EGFP
Conditions: human, HepG2-A16-CD81EGFP cells; read-out: INHIBITION
VALUE TYPE: cytotoxicity at 10 µM (%)
Please give a number only; it is taken to be in %.

cytotoxicity at 10 µM lookup needed for CNc1nc(CNC(=O)Nc2ccc(OC)cc2C)cs1 , thanks.
-8.17

cytotoxicity at 10 µM lookup needed for CC(NCc1cc(F)ccc1F)c1ccc(OCC(=O)NC2CC2)cc1 (centres undefined) , thanks.
-13.2

cytotoxicity at 10 µM lookup needed for CNc1nc2c(c(C(=O)N3CCCC3)n1)CN(Cc1cc(C)no1)CC2 , thanks.
-103

cytotoxicity at 10 µM lookup needed for Cc1nn(C)c(Cl)c1C1CCCN1C(=O)CCNc1ncccn1 (centres undefined) , thanks.
-7.42

cytotoxicity at 10 µM lookup needed for CC(=O)NC1CCCN(C(=O)Nc2cccnc2-n2cccn2)C1 (centres undefined) , thanks.
-15.3

cytotoxicity at 10 µM lookup needed for CC(O)CN1CCc2onc(-c3ccccc3F)c2C1 (centres undefined) , thanks.
0.963

cytotoxicity at 10 µM lookup needed for Cc1cccc(N2CCN(C(=O)Nc3cnn(CC(N)=O)c3)CC2)c1 , thanks.
-8.31

cytotoxicity at 10 µM lookup needed for Cc1cccc(CN2CCC3(CCCN(C(=O)NC4CC4)C3)C2=O)n1 (centres undefined) , thanks.
12.2

###

Assay: Toxicity liver stage against HepG2, at 10uM
Format: cell-based
Set-up: test concentration 10 uM, cell line HepG2-A16-CD81EGFP
Conditions: human, HepG2-A16-CD81EGFP cells; read-out: INHIBITION
VALUE TYPE: cytotoxicity at 10 µM (%)
Please give a number only; it is taken to be in %.

Check out these entries, answers already filled in.
COMPOUND	cytotoxicity at 10 µM / %
Cc1ccc2nc(C)cc(C(=O)N3C[C@H]4CCC[C@@]4(CO)C3)c2c1	2.53
CCc1cnc(N)nc1N1CCN(C(C)=O)CC1	-51.7
COc1cc(-c2n[nH]c(CCN)n2)cc(OC)c1OC	-0.297

cytotoxicity at 10 µM lookup needed for c1c2c(nn1CC1CCOCC1)C(CNC1CCOCC1)OCC2 (centres undefined) , thanks.
5.83

###

Assay: Toxicity liver stage against HepG2, at 10uM
Type: cell-based
Parameters: test concentration 10 uM, cell line HepG2-A16-CD81EGFP
Conditions: human, HepG2-A16-CD81EGFP cells; read-out: INHIBITION
VALUE TYPE: cytotoxicity at 10 µM (%)
Please give a number only; it is taken to be in %.

Check out these entries, answers already filled in.
MOLECULE	cytotoxicity at 10 µM, %
Cc1ccc(C(=O)N2CC[C@H]3[C@@H]2CCC(=O)N3c2ccccc2)cn1	-112
COc1ccc(C(=O)Nc2nncs2)cn1	-11.9
NC(=O)COc1cccc(CN2CCc3cncnc3C2)c1	-12.9
COc1cccc(CC2(C(=O)O)CCN(c3ccc(Cl)cn3)CC2)c1	-14
CC(C(=O)N1CCN(c2ccccc2Cl)CC1)n1cncn1 (configuration not stated)	5.17
NC(=O)N1CCCC(C(=O)N2CCN(c3nsc4ccccc34)CC2)C1 (configuration not stated)	7.86
NC(=O)C1CCCN1CCCc1ccc(C(F)(F)F)cc1 (configuration not stated)	0.936
Cc1cnc(C(=O)N(C)[C@@H]2CCC[C@@H](Oc3ccccc3)[C@@H]2O)cn1	-15.3

cytotoxicity at 10 µM lookup needed for COCCN1CCC2(CC1)CC(c1cccnc1)C(=O)N2C (configuration not stated) , thanks.
7.26

cytotoxicity at 10 µM lookup needed for O=C(Nc1cnccn1)[C@H]1CO[C@H]2CCN(c3ncc(F)cn3)C[C@H]2C1 , thanks.
1.2

cytotoxicity at 10 µM lookup needed for Cc1ccc(CN2CCc3onc(C(=O)N4CCCC4)c3C2)o1 , thanks.
6.28

cytotoxicity at 10 µM lookup needed for CS(=O)(=O)N1CCOC2(CCN(c3ncccn3)CC2)c2ccccc21 , thanks.
-1.52

cytotoxicity at 10 µM lookup needed for CCc1ccc(C2CC(=O)Nc3cc(OC)c(NS(C)(=O)=O)cc32)o1 (configuration not stated) , thanks.
3.25
